ED50 for assorted molecules
System: E. coli 9-25.1.
assay_overview: oral ED50, systemic infection in mice
test_settings: Escherichia coli, 925.1., in Mus musculus, read-out: oral ED50

>  <molecule>
CC1=C(C(=O)O)N2C(=O)[C@@H](NC(=O)[C@H](N)C3=CCC=CC3)[C@H]2SC1 [cephradine]

>  <assay_system>
E. coli 9-25.1.

>  <ED50>
> 300 mg/kg

$$$$
>  <molecule>
COC1=C(C(=O)O)N2C(=O)[C@@H](NC(=O)[C@H](N)c3ccccc3)[C@H]2SC1 [compound II]

>  <assay_system>
E. coli 9-25.1.

>  <ED50>
> 300 mg/kg

$$$$
>  <molecule>
COC1=C(C(=O)O)N2C(=O)[C@@H](NC(=O)[C@H](N)C3=CCC=CC3)[C@H]2SC1 [compound I]

>  <assay_system>
E. coli 9-25.1.

>  <ED50>
≥ 300 mg/kg

$$$$
>  <molecule>
CC1=C(C(=O)O)N2C(=O)[C@@H](NC(=O)[C@H](N)c3ccccc3)[C@H]2SC1 [cephalexin]

>  <assay_system>
E. coli 9-25.1.

>  <ED50>
> 300 mg/kg

$$$$

----------
System: Escherichia coli 205
assay_overview: oral ED50, systemic infection in mice
test_settings: Escherichia coli, 205, in Mus musculus, read-out: oral ED50
ED50 for assorted compounds
observable: ED50

>  <structure_smiles>
CC1=C(C(=O)O)N2C(=O)[C@@H](NC(=O)[C@H](N)C3=CCC=CC3)[C@H]2SC1

>  <observable>
ED50

>  <value>
52 mg/kg

$$$$
>  <structure_smiles>
COC1=C(C(=O)O)N2C(=O)[C@@H](NC(=O)[C@H](N)c3ccccc3)[C@H]2SC1

>  <observable>
ED50

>  <value>
22 mg/kg

$$$$
>  <structure_smiles>
COC1=C(C(=O)O)N2C(=O)[C@@H](NC(=O)[C@H](N)C3=CCC=CC3)[C@H]2SC1

>  <observable>
ED50

>  <value>
9.5 mg/kg

$$$$
>  <structure_smiles>
CC1=C(C(=O)O)N2C(=O)[C@@H](NC(=O)[C@H](N)c3ccccc3)[C@H]2SC1

>  <observable>
ED50

>  <value>
40 mg/kg

$$$$

----------
Test system: E. coli 2018 R^+TEM
assay_overview: oral ED50, systemic infection in mice
test_settings: Escherichia coli, in Mus musculus, read-out: oral ED50
observable: ED50 (mg/kg)

>  <compound>
COC1=C(C(=O)O)N2C(=O)[C@@H](NC(=O)[C@H](N)c3ccccc3)[C@H]2SC1 [compound II]

>  <u>
mg/kg

>  <value>
38

$$$$
>  <compound>
CC1=C(C(=O)O)N2C(=O)[C@@H](NC(=O)[C@H](N)c3ccccc3)[C@H]2SC1 [cephalexin]

>  <u>
mg/kg

>  <value>
25

$$$$
>  <compound>
COC1=C(C(=O)O)N2C(=O)[C@@H](NC(=O)[C@H](N)C3=CCC=CC3)[C@H]2SC1 [compound I]

>  <u>
mg/kg

>  <value>
14

$$$$
>  <compound>
CC1=C(C(=O)O)N2C(=O)[C@@H](NC(=O)[C@H](N)C3=CCC=CC3)[C@H]2SC1 [cephradine]

>  <u>
mg/kg

>  <value>
38

$$$$
